# system: Human immunodeficiency virus type 1 protease (Human immunodeficiency virus 1) (UniProt Q72874)
# measurement_protocol: Concentration which reduced the concentration of HIV viral RNA by 90% from the level measured in an untreated infected culture
# Assay type: functional
This section presents compounds with their documented Log 1/IC90 values.

{"structure_smiles": "O=C1N(c2cccc(CO)c2)[C@H](CCc2ccccc2)[C@@H](O)[C@@H](Cc2ccccc2)N1c1cccc(CO)c1", "Log 1/IC90": 6.96}
{"structure_smiles": "Nc1ccc(N2C(=O)N(c3ccc(N)c(F)c3)[C@H](Cc3ccccc3)[C@H](O)[C@H]2CCc2ccccc2)cc1F", "Log 1/IC90": 6.27}
{"structure_smiles": "Nc1cccc(N2C(=O)N(c3cccc(N)c3)[C@H](Cc3ccccc3)[C@H](O)[C@H]2CCc2ccccc2)c1", "Log 1/IC90": 6.44}
{"structure_smiles": "NC(=O)c1cccc(N2C(=O)N(c3cccc(C(N)=O)c3)[C@H](Cc3ccccc3)[C@H](O)[C@H]2CCc2ccccc2)c1", "Log 1/IC90": 7.46}
{"structure_smiles": "O=C1N(c2cccc(O)c2)[C@H](CCc2ccccc2)[C@@H](O)[C@@H](Cc2ccccc2)N1c1cccc(O)c1", "Log 1/IC90": 6.94}

====

Listing of entries alongside the reported Log 1/IC90.
# system: Human immunodeficiency virus type 1 protease (Human immunodeficiency virus 1)
# measurement_protocol: Concentration which reduced the concentration of HIV viral RNA by 90% from the level measured in an untreated infected culture
# Assay type: functional
quantity_measured: Log 1/IC90

{"structure_smiles": "O=C1N(c2ccc(CO)cc2)[C@H](CCc2ccccc2)[C@@H](O)[C@@H](Cc2ccccc2)N1c1ccc(CO)cc1", "quantity_measured": "Log 1/IC90", "observed_result": 5.44}
{"structure_smiles": "CNc1cccc(N2C(=O)N(c3cccc(NC)c3)[C@H](Cc3ccccc3)[C@H](O)[C@H]2CCc2ccccc2)c1", "quantity_measured": "Log 1/IC90", "observed_result": 6.48}
{"structure_smiles": "N#Cc1cccc(N2C(=O)N(c3cccc(C#N)c3)[C@H](Cc3ccccc3)[C@H](O)[C@H]2CCc2ccccc2)c1", "quantity_measured": "Log 1/IC90", "observed_result": 5.8}
{"structure_smiles": "Nc1cc(N2C(=O)N(c3ccc(F)c(N)c3)[C@H](Cc3ccccc3)[C@H](O)[C@H]2CCc2ccccc2)ccc1F", "quantity_measured": "Log 1/IC90", "observed_result": 7.44}
{"structure_smiles": "NC(=O)c1cc(N2C(=O)N(c3ccc(F)c(C(N)=O)c3)[C@H](Cc3ccccc3)[C@H](O)[C@H]2CCc2ccccc2)ccc1F", "quantity_measured": "Log 1/IC90", "observed_result": 6.31}
{"structure_smiles": "O=C1N(c2ccccc2)[C@H](CCc2ccccc2)[C@@H](O)[C@@H](Cc2ccccc2)N1c1ccccc1", "quantity_measured": "Log 1/IC90", "observed_result": 5.55}
{"structure_smiles": "N=C(NO)c1cccc(N2C(=O)N(c3cccc(/C(N)=C\\O)c3)[C@H](Cc3ccccc3)[C@H](O)[C@H]2CCc2ccccc2)c1", "quantity_measured": "Log 1/IC90", "observed_result": 7.31}
